# TESTED SYSTEM: CYP3A4 (Homo sapiens, UniProt P08684)
# Construct: containing 0.1 mg/mL human liver microsomes; from tissue; host or cells: human liver microsomes
# Sequence (P08684 whole entry): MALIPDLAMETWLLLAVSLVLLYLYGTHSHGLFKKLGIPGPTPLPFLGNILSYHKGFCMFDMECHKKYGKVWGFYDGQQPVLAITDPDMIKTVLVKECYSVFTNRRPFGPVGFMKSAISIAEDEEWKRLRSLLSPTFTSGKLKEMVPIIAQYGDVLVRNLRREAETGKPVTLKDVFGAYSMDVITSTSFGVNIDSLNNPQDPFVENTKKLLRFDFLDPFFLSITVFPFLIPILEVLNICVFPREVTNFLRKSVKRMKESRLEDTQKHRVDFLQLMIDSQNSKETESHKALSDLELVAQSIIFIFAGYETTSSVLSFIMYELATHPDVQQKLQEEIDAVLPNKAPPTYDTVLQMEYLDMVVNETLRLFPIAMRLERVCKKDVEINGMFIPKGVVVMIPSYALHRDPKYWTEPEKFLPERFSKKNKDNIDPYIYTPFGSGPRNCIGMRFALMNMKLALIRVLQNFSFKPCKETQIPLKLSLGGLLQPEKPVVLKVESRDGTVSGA
# EXPERIMENTAL DETAILS: CYP3A4 (midazolam) inhibition in human liver microsomes
# Format: in vitro ADME
# CONDITION LABEL: probe midazolam; human liver microsomes 0.1 mg/mL, midazolam substrate, 1 μM test compound, 37° C. 10 min
# binarize inhibition at 10 min, 1 µM: threshold 30% inclusive, high side t, low side f

Determine whether measured inhibition at 10 min, 1 µM meets or exceeds 30% for CC1(C)CC[C@]2(CN3CCC3=O)CC[C@]3(C)[C@H](C(=O)C=C4[C@@]5(C)C=C(C#N)C(=O)C(C)(C)[C@@H]5CC[C@]43C)[C@@H]2C1 [Compound T10]
t

Determine whether measured inhibition at 10 min, 1 µM meets or exceeds 30% for CNC(=O)c1cn([C@]23CCC(C)(C)C[C@H]2[C@H]2C(=O)C=C4[C@@]5(C)C=C(C#N)C(=O)C(C)(C)[C@@H]5CC[C@@]4(C)[C@]2(C)CC3)nn1 [Compound T41]
f

Determine whether measured inhibition at 10 min, 1 µM meets or exceeds 30% for CC1(C)CC[C@]2(n3cnnn3)CC[C@]3(C)[C@H](C(=O)C=C4[C@@]5(C)C=C(C#N)C(=O)C(C)(C)[C@@H]5CC[C@]43C)[C@@H]2C1 [Compound T36]
t

Determine whether measured inhibition at 10 min, 1 µM meets or exceeds 30% for CC1(C)CC[C@]2(n3cc(CF)nn3)CC[C@]3(C)[C@H](C(=O)C=C4[C@@]5(C)C=C(C#N)C(=O)C(C)(C)[C@@H]5CC[C@]43C)[C@@H]2C1 [Compound T43]
f

Determine whether measured inhibition at 10 min, 1 µM meets or exceeds 30% for CC1(C)CC[C@]2(Cn3ccnc3)CC[C@]3(C)[C@H](C(=O)C=C4[C@@]5(C)C=C(C#N)C(=O)C(C)(C)[C@@H]5CC[C@]43C)[C@@H]2C1 [Compound T17]
t

Determine whether measured inhibition at 10 min, 1 µM meets or exceeds 30% for CC1(C)CC[C@]2(Cn3cncn3)CC[C@]3(C)[C@H](C(=O)C=C4[C@@]5(C)C=C(C#N)C(=O)C(C)(C)[C@@H]5CC[C@]43C)[C@@H]2C1 [Compound T21]
f

Determine whether measured inhibition at 10 min, 1 µM meets or exceeds 30% for CC1(C)CC[C@]2(Cn3cnnn3)CC[C@]3(C)[C@H](C(=O)C=C4[C@@]5(C)C=C(C#N)C(=O)C(C)(C)[C@@H]5CC[C@]43C)[C@@H]2C1 [Compound T18]
t

Determine whether measured inhibition at 10 min, 1 µM meets or exceeds 30% for CC1(C)CC[C@]2(Cn3ccnn3)CC[C@]3(C)[C@H](C(=O)C=C4[C@@]5(C)C=C(C#N)C(=O)C(C)(C)[C@@H]5CC[C@]43C)[C@@H]2C1 [Compound T19]
t

Determine whether measured inhibition at 10 min, 1 µM meets or exceeds 30% for CC1(C)CC[C@]2(CN3CCCC3=O)CC[C@]3(C)[C@H](C(=O)C=C4[C@@]5(C)C=C(C#N)C(=O)C(C)(C)[C@@H]5CC[C@]43C)[C@@H]2C1 [Compound T11]
f

Determine whether measured inhibition at 10 min, 1 µM meets or exceeds 30% for CC1(C)CC[C@]2(n3ccnn3)CC[C@]3(C)[C@H](C(=O)C=C4[C@@]5(C)C=C(C#N)C(=O)C(C)(C)[C@@H]5CC[C@]43C)[C@@H]2C1 [Compound T35]
t

Determine whether measured inhibition at 10 min, 1 µM meets or exceeds 30% for CC1(C)CC[C@]2(n3ccnc3)CC[C@]3(C)[C@H](C(=O)C=C4[C@@]5(C)C=C(C#N)C(=O)C(C)(C)[C@@H]5CC[C@]43C)[C@@H]2C1 [Compound T37]
t

Determine whether measured inhibition at 10 min, 1 µM meets or exceeds 30% for CC1(C)CC[C@]2(n3cncn3)CC[C@]3(C)[C@H](C(=O)C=C4[C@@]5(C)C=C(C#N)C(=O)C(C)(C)[C@@H]5CC[C@]43C)[C@@H]2C1 [Compound T33]
t

Determine whether measured inhibition at 10 min, 1 µM meets or exceeds 30% for CC1(C)CC[C@]2(Cn3cccn3)CC[C@]3(C)[C@H](C(=O)C=C4[C@@]5(C)C=C(C#N)C(=O)C(C)(C)[C@@H]5CC[C@]43C)[C@@H]2C1 [Compound T20]
f
